The entries below are paired with their reported melting point.

Here are 8 compounds together with their reported answers.
compound	val
Cl.O=c1c(-c2ccc(F)cc2)c(CN2CCOCC2)oc2ccccc12 [Example 18a]	225 to 229 °C
CC(c1oc2ccccc2c(=O)c1-c1cccc(F)c1)n1nc(-c2cc(O)cc(F)c2)c2c(N)ncnc21 (centres unmarked) [Example 76a]	271 to 273 °C
Cl.O=c1c(-c2ccccc2)c(CN2CCOCC2)oc2ccc(Br)cc12	229 to 230 °C
COc1ccc(-c2nn(C(C)c3oc4ccccc4c(=O)c3-c3cccc(F)c3)c3ncnc(N)c23)cc1Cl (centres unmarked)	246 to 249 °C
CC(c1oc2ccc(Br)cc2c(=O)c1-c1ccccc1F)n1cnc2c(N)ncnc21 (centres unmarked)	256 to 258 °C
CC(c1oc2ccccc2c(=O)c1-c1cccc(F)c1)n1nc(-c2ccc(Cl)c(O)c2)c2c(N)ncnc21 (centres unmarked) [Example 95a]	134 to 136 °C
O=c1c(-c2ccccc2)c(CSc2ncnc3[nH]cnc23)oc2ccc(Br)cc12	214 to 218 °C
Cc1c[nH]c2cc(-c3nn(C(C)c4oc5ccccc5c(=O)c4-c4cccc(F)c4)c4ncnc(N)c34)ccc12 (centres unmarked) [Example 111]	269 to 272 °C

Proceed to the following item.
q: Can you share its melting point? I mean this compound: `Nc1ncnc2c1c(-c1cccc(F)c1)nn2Cc1oc2ccccc2c(=O)c1-c1ccccc1`
a: 244 to 247 °C

----------
The entries below are paired with their reported inhibition at 1 µM.
- assayTarget: P110 δ/Pi3K δ (Homo sapiens, UniProt O00329)
- Sequence (O00329 whole entry, canonical isoform): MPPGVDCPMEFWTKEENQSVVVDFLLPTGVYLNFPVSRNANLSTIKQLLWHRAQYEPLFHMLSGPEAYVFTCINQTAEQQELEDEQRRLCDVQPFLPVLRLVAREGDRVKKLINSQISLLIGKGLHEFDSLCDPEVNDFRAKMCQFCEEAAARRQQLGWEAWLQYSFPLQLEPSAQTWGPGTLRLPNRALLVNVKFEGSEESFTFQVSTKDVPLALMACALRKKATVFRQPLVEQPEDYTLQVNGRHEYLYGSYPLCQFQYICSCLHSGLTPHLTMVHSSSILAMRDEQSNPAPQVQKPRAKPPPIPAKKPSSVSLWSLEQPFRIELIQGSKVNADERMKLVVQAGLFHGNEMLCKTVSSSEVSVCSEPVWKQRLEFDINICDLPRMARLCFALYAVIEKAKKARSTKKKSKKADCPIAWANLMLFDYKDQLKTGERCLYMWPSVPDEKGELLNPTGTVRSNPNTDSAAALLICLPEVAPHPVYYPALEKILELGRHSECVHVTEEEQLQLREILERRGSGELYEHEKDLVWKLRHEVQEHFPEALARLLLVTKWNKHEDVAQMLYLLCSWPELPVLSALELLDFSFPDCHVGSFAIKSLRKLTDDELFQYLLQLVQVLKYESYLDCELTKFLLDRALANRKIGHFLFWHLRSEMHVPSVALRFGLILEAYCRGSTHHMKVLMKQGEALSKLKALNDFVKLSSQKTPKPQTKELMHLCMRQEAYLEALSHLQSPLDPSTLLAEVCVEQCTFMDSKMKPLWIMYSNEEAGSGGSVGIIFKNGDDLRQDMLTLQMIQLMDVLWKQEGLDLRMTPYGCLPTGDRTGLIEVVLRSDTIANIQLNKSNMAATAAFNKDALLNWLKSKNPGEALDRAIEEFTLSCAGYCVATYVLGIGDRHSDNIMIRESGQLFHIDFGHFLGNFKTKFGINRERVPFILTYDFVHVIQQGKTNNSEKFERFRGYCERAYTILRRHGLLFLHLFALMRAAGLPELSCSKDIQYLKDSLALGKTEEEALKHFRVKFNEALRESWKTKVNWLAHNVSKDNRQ
- Sequence (P27986 whole entry partner, canonical isoform): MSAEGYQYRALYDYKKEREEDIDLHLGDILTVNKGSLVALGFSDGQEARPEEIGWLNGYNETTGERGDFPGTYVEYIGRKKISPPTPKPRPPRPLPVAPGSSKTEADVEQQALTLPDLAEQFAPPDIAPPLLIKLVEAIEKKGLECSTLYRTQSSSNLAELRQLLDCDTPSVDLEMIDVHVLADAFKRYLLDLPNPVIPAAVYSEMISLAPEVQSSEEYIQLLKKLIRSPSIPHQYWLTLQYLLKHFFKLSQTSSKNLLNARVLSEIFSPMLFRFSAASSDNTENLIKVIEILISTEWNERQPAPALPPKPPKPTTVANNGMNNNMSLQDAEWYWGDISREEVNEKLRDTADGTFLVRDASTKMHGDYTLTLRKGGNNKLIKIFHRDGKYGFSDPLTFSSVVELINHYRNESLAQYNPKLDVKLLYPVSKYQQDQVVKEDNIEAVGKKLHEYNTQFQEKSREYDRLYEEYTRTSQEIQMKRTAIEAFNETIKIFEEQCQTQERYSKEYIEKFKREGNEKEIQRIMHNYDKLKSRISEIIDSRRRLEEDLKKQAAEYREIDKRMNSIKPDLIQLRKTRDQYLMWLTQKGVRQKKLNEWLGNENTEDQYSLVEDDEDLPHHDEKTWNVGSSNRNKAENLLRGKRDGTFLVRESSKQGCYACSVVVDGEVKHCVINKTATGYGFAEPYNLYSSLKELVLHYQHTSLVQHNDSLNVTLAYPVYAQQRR
- testMethodNotes: Fluorescent (HTRF) determination of PI3K enzyme activity, δ isoform
- Type: biochemical

q: Can you share its inhibition at 1 µM? I mean this molecule: O=c1c(-c2ccccc2)c(Cn2cnc3c(Cl)ncnc32)oc2ccccc12 [Example 9]
a: < 50%

----------
- assayTarget: P110 δ/Pi3K δ (Homo sapiens, UniProt O00329)
- testMethodNotes: Fluorescent (HTRF) determination of PI3K enzyme activity, δ isoform
- Format: biochemical
The entries below are paired with their reported inhibition at 1 µM.

Here are 4 molecules together with their reported answers.
molecule	val
O=c1c(-c2cccc(F)c2)c(CNc2ncnc3[nH]cnc23)oc2ccccc12	< 50%
O=c1c(-c2ccccc2)c(CSc2ncnc3[nH]cnc23)oc2ccccc12	< 50%
Nc1ncnc2c1c(-c1cccc3[nH]ncc13)nn2Cc1oc2ccccc2c(=O)c1-c1ccccc1	< 50%
Nc1ncnc2c1c(-c1cc(O)cc(F)c1)nn2Cc1oc2ccccc2c(=O)c1-c1ccccc1 [Example 66a]	50 to 100%

q: Can you share its inhibition at 1 µM? I mean this molecule: `CC(=O)Nc1cccc(-c2nn(Cc3oc4ccccc4c(=O)c3-c3ccccc3)c3ncnc(N)c23)c1`
a: < 50%

q: Can you share its inhibition at 1 µM? I mean this molecule: Cc1ccccc1-c1c(C(C)n2cnc3c(N)ncnc32)oc2ccccc2c1=O (stereo not shown)
a: 50 to 100%

----------
The entries below are paired with their reported inhibition at 1 µM.
- assayTarget: P110β (Homo sapiens, UniProt P42338)
- Sequence (P42338 whole entry, canonical isoform): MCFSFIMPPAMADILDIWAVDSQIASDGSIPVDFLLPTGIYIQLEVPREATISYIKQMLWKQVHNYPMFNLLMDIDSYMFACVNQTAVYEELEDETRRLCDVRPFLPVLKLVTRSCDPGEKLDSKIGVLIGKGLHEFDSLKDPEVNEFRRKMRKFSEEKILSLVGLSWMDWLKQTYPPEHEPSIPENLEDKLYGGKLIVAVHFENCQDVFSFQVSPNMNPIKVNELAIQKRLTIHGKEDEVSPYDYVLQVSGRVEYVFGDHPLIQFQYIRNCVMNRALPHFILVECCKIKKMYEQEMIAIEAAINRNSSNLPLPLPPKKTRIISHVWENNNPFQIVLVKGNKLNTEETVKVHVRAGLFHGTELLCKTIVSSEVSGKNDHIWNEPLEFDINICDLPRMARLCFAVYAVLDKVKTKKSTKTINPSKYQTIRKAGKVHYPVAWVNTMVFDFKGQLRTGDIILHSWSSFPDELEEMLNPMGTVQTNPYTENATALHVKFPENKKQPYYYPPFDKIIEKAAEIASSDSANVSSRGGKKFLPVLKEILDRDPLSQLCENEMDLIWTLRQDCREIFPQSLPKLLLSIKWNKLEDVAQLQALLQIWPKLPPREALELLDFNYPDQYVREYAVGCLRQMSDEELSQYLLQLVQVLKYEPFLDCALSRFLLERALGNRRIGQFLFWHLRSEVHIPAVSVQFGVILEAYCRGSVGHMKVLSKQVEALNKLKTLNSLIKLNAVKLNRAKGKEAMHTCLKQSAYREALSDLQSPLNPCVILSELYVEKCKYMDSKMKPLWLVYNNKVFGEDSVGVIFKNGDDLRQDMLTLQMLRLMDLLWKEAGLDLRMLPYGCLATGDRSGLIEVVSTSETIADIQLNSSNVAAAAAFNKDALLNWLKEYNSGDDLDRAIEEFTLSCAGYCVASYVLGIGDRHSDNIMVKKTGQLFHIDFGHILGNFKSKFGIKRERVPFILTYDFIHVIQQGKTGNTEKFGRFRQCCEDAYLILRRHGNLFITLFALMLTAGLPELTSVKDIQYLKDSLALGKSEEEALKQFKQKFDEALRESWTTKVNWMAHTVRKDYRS
- Sequence (P27986 whole entry partner, canonical isoform): as the sequence (P27986 whole entry partner, canonical isoform) above
- testMethodNotes: Fluorescent (HTRF) determination of PI3K enzyme activity, β isoform
- Format: biochemical

Here are 3 compounds together with their reported answers.
compound	assayTarget	val
CC(c1oc2ccccc2c(=O)c1-c1cccc(F)c1)n1cnc2c(N)ncnc21 (stereo not shown)	P110β (Homo sapiens, UniProt P42338)	< 25%
CC(c1oc2ccccc2c(=O)c1-c1cccc(F)c1)n1nc(-c2ccc(S(C)(=O)=O)cc2)c2c(N)ncnc21 (stereo not shown)	P110β (Homo sapiens, UniProt P42338)	25 to 50%
CC(c1oc2ccccc2c(=O)c1-c1cccc(F)c1)n1nc(-c2cnn(Cc3ccccc3)c2)c2c(N)ncnc21 (stereo not shown)	P110β (Homo sapiens, UniProt P42338)	25 to 50%

q: Can you share its inhibition at 1 µM? I mean this compound: COc1ccc(-c2nn(C(C)c3oc4ccccc4c(=O)c3-c3cccc(F)c3)c3ncnc(N)c23)cc1F (stereo not shown)
a: < 25%

q: Can you share its inhibition at 1 µM? I mean this compound: CC(C)Oc1ccc(-c2nn(C(C)c3oc4ccccc4c(=O)c3-c3cccc(F)c3)c3ncnc(N)c23)cc1 (stereo not shown)
a: 50 to 100%

q: Can you share its inhibition at 1 µM? I mean this compound: CCC(c1oc2ccccc2c(=O)c1-c1cccc(F)c1)n1nc(-c2ccc3c(C)n[nH]c3c2)c2c(N)ncnc21 (stereo not shown)
a: < 25%

q: Can you share its inhibition at 1 µM? I mean this compound: Cc1n[nH]c2cc(-c3nn(C(C)c4oc5ccccc5c(=O)c4-c4cccc(F)c4)c4ncnc(N)c34)ccc12 (stereo not shown)
a: 25 to 50%
